Molecular target: T1, TNFR1 (Homo sapiens, UniProt P19438)
T1 chain: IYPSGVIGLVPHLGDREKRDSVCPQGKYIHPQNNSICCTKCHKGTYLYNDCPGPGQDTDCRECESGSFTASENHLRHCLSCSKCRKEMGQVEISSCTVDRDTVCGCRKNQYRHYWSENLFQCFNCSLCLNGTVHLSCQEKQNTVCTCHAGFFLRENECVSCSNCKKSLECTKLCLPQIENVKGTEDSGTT
Test: yeast display SC50
RECORDED_METRIC: apparent Kd (screen) (nM)
API: value field is a number in nM; no unit string.

Exam item: Consider the binder shown here: R96H (designed binder) SMEEEVEKAAKEYEKKKKEAIEKHLEKLKAKDKEAAERFLKELEEAAKEYAKDEAKTMSEEEAKRRAKKYKEKVLLSELSEEEQKEIKEAEEKLVHTILKYVEEAAK What is its recorded apparent Kd (screen)?
Marked response: 2.48

Exam item: Can you check R65A (designed binder) SMEEEVEKAAKEYEKKKKEAIEKHLEKLKAKDKEAAERFLKELEEAAKEYAKDEAKTMSEEEAKARAKKYKEKVLLSELSEEEQKEIKEAEEKLVRTILKYVEEAAK next?
Marked response: 1.27

Exam item: Can you check E103D (designed binder) SMEEEVEKAAKEYEKKKKEAIEKHLEKLKAKDKEAAERFLKELEEAAKEYAKDEAKTMSEEEAKRRAKKYKEKVLLSELSEEEQKEIKEAEEKLVRTILKYVDEAAK next?
Marked response: 0.79

Exam item: Can you check E81Q (designed binder) SMEEEVEKAAKEYEKKKKEAIEKHLEKLKAKDKEAAERFLKELEEAAKEYAKDEAKTMSEEEAKRRAKKYKEKVLLSELSQEEQKEIKEAEEKLVRTILKYVEEAAK next?
Marked response: 0.593
